# TEST SYSTEM: T1, mouse Tie2-his (Sino Biological, 51087-M08H) (mouse, UniProt Q02858 23-743)
# T1 construct: Bought protein; also called mTIE2-his; mTie2-his; not shown: his tag
# T1 sequence (Q02858 23-743 limits assumed, stated change not applied): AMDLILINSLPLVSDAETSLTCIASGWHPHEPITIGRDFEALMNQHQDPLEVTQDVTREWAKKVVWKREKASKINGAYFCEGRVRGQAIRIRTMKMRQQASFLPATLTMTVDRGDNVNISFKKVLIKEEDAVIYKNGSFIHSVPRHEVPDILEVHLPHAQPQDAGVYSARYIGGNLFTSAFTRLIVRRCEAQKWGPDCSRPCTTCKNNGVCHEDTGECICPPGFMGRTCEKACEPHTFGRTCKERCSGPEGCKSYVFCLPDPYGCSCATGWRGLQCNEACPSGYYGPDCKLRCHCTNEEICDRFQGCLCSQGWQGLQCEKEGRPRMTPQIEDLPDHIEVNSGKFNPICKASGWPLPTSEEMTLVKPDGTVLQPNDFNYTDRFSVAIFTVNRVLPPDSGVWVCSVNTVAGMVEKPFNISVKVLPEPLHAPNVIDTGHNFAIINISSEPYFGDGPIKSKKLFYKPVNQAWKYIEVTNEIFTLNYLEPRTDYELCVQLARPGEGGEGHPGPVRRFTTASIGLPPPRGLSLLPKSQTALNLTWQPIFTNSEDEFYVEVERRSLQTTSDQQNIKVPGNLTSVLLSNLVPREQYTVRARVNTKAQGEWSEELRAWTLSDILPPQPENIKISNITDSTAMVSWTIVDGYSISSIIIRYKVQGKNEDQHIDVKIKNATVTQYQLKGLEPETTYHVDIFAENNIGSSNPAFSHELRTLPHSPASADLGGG
# METHOD NOTES: ELISA, scFv phage on mouse TIE2 antigen, HRP anti-M13 detection
PROPERTY NAME: Mouse ELISA
Answers are plain numbers.

// solved cases for Mouse ELISA follow
[
  {
    "BINDER": "2F2 monoclonal scFv phage (scFv) QVQLVESGGGLVQPGGSLRLSCAASGFTFSSYAMTWVRQAPGKGLEWVSRISGSGGSTNYADSVKGRFTISRDNSKNTLYLQMNSLRAEDTAVYYCARGGLHHGFDIWGQGTMVTVSSSYELTQPPSLSVAPGKTARITCDGDNIESKSVHWYQQKPGQAPVLVIYYDNDRPSGIPERFSGSNSGNTATLTISRVEAGDEADYYCQVWDTYTDQPVFGGGTKLTVLG",
    "Mouse ELISA": 0.1
  },
  {
    "BINDER": "3D6 monoclonal scFv phage (scFv) QVQLVESGGGLVQPGGSLRLSCIGSGFTFSRYNINWVRQAPGKGLEWVSSISSSGRFIHYAGSVKGRFTVSRDNTKNSVSLQMNSLRAEDTAVYYCARDSPTQGPYYYYGMDVWGQGTTITVSSSYELTQPPSESVAPGKTATITCGGNKIGSKSVHWYQQKPGQAPLMVIYYDSDRPSGIPERFSGSNSGNTATLTISRVEVGDEADYYCQVWDSSSDRPVFGGGTKLTVLG",
    "Mouse ELISA": 0.1
  }
]

Next binder, please.
query: Tell us which Mouse ELISA value is on record for 4E2 monoclonal scFv phage (scFv) QVQLVQSGGGLIQPGGSLRLSCAASGFTFSDYAMHWVRQAPGKGLEWVALISFDGNNQYYADSVKGRFTISRDNSKNTIYLQMNSLRAEDTAVYYCTTDTMSGYDWEDAFDIWGQGTMITVSSDIQMTQSPSSLSASIGDRVTITCRASQSIGRWLAWYQQKPGKAPKLLIYAASSLQSGVPSRFSGSGSGTDFTLTISSLQPEDFATYYCQQSYSTPYTFGQGTKVEIKR
result: 0.4
